# target_system: RAC-alpha serine/threonine-protein kinase (Homo sapiens)
# Sequence (P31749 whole entry): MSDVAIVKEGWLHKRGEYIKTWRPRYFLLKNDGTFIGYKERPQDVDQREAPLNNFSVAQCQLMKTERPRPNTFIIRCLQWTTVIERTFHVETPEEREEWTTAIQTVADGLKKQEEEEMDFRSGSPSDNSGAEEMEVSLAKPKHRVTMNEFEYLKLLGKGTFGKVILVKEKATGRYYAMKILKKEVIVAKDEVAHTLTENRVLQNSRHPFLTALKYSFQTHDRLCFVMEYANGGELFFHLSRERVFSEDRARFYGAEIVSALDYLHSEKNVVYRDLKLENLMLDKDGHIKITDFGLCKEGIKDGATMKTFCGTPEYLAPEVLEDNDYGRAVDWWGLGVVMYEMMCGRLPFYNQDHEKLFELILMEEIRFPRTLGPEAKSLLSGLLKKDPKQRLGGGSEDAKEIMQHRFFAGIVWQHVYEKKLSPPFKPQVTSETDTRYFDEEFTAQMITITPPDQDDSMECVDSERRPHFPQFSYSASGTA
# test_name: Inhibition of human PKB expressed in baculovirus at pH 7.2 measured after 30 mins in presence of gamma-[33P]-ATP by scintillation counter analysis
reported_endpoint: IC50

{"compound_smiles": "Nc1ncnc2c1c(-c1cccc(OCc3ccccc3)c1)cn2[C@H]1C[C@@H](CN2CCC2)C1", "reported_endpoint": "IC50", "observed_measurement": "> 10 µM"}

* * *

# target_system: UniProt:P09619
# Sequence (P09619 whole entry): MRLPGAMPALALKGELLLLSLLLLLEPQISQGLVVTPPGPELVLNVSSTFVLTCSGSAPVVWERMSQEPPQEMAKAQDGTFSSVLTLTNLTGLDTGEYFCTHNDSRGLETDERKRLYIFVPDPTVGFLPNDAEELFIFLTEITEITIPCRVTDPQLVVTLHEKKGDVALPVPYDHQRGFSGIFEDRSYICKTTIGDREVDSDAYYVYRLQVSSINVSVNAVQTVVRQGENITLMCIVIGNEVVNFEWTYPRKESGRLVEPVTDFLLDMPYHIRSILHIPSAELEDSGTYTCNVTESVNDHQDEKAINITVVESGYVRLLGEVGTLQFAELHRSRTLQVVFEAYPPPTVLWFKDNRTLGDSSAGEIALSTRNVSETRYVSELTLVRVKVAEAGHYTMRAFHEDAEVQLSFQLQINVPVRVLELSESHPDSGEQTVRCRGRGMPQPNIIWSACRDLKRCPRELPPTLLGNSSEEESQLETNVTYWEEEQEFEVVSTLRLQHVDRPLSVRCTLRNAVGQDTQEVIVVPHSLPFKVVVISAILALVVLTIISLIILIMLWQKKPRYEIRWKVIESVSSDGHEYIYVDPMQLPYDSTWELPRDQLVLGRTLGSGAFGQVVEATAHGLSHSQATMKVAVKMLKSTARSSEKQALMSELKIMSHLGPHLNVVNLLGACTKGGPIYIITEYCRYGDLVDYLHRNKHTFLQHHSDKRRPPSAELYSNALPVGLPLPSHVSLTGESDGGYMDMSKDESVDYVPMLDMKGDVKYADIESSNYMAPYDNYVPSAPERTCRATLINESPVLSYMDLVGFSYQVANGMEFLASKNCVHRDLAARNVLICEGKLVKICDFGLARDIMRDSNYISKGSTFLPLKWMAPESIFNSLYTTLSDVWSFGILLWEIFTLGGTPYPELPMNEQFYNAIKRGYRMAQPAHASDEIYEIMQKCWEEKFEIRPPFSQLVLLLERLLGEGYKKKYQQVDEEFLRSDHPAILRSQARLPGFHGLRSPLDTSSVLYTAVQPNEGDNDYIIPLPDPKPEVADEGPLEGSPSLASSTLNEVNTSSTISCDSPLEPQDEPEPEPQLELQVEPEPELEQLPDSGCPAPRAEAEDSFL
# test_name: Inhibition of GST tagged PDGFR-beta (unknown origin) expressed in baculovirus at pH 7.6 measured after 10 to 30 mins in presence of gamma-[33P]-ATP by scintillation counter analysis

{"compound_smiles": "Nc1ncnc2c1c(-c1cccc(OCc3ccccc3)c1)cn2[C@H]1C[C@@H](CN2CCC2)C1", "readout_unit": "nM", "IC50": 2000}

* * *

# target_system: Tyrosine-protein kinase ABL1 (Homo sapiens, UniProt P00519)
# Sequence (P00519 whole entry): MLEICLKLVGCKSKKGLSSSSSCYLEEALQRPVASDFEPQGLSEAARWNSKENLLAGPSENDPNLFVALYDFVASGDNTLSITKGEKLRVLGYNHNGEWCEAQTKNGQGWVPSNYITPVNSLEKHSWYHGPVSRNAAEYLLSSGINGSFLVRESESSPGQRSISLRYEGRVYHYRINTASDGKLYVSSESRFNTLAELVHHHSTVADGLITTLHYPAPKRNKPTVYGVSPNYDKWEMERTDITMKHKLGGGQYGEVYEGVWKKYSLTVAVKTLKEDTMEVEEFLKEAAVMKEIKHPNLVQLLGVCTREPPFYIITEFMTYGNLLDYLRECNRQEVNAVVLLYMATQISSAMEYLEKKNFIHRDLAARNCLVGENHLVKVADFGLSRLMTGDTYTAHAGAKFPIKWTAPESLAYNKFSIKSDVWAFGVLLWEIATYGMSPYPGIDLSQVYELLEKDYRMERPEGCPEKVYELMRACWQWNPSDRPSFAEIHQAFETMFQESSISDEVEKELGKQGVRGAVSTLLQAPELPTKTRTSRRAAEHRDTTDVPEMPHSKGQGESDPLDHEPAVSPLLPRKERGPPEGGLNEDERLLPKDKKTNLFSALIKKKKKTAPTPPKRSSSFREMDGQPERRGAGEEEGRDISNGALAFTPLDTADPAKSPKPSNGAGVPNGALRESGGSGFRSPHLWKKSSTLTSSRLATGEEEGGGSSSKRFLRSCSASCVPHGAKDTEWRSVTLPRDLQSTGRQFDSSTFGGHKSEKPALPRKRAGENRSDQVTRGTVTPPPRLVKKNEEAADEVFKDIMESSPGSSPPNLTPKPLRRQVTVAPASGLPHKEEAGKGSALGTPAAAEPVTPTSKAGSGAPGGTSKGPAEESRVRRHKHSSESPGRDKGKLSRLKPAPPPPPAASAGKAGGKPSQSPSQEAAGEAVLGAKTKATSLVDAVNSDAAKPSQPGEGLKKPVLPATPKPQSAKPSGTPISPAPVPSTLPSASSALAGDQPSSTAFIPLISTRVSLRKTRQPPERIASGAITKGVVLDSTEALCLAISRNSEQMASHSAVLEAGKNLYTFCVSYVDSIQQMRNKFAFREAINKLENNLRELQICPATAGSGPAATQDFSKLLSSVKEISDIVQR
# test_name: Inhibition of GST tagged c-Abl (unknown origin) expressed in baculovirus infected Sf9 cells at pH 7.5 measured after 10 mins in presence of gamma-[33P]-ATP by scintillation counter analysis
pIC50: −log10 of the molar value.

{"compound_smiles": "Nc1ncnc2c1c(-c1cccc(OCc3ccccc3)c1)cn2[C@H]1C[C@@H](CN2CCC2)C1", "pIC50": "< 5.00"}

* * *

# target_system: Mast/stem cell growth factor receptor Kit (Homo sapiens)
# Sequence (P10721 whole entry): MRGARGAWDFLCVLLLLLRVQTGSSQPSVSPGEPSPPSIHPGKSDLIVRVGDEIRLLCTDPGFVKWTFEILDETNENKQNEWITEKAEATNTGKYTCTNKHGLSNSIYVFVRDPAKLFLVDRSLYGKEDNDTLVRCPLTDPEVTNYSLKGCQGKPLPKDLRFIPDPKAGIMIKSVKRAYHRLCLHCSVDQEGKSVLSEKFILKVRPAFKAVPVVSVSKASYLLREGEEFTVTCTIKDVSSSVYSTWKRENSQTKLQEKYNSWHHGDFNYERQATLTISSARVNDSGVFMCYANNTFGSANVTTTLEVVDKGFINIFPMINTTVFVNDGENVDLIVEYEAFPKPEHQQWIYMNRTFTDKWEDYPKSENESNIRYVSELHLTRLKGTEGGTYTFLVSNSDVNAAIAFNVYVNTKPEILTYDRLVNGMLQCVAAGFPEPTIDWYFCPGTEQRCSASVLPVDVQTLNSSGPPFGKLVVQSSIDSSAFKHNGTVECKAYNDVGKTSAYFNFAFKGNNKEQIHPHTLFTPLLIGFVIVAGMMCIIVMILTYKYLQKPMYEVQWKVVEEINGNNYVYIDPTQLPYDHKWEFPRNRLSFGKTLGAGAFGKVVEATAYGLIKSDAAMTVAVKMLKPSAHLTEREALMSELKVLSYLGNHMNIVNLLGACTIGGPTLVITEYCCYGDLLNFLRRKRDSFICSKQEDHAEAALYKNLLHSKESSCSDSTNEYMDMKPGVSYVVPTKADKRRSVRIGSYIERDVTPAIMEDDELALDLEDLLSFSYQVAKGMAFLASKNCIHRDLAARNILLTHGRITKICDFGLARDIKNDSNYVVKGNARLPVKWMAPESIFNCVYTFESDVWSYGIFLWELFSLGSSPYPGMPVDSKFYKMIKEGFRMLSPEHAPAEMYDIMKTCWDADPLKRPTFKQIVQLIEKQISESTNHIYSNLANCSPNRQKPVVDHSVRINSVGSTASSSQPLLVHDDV
# test_name: Inhibition of c-Kit (unknown origin) in human GIST882 cells assessed as inhibition of autophosphorylation of c-Kit incubated for 90 mins in presence of anti-CD117 antibody by ELISA analysis
# Assay type: cell-based

{"compound_smiles": "Nc1ncnc2c1c(-c1cccc(OCc3ccccc3)c1)cn2[C@H]1C[C@@H](CN2CCC2)C1", "IC50": "> 5 µM"}

* * *

# target_system: UniProt P06213
# test_name: Inhibition of Ins-R in A14 [Human melanoma] cells assessed as inhibition of autophosphorylation of Ins-R incubated for 90 mins followed by insulin stimulation measured after 10 mins by ELISA analysis
# Type: cell-based
pIC50: −log10 of the molar value.

{"compound_smiles": "Nc1ncnc2c1c(-c1cccc(OCc3ccccc3)c1)cn2[C@H]1C[C@@H](CN2CCC2)C1", "pIC50": 5.64}

* * *

# target_system: Vascular endothelial growth factor receptor 2 (Homo sapiens)
# test_name: Inhibition of GST tagged KDR (unknown origin) expressed in baculovirus at pH 7.6 measured after 10 to 30 mins in presence of gamma-[33P]-ATP by scintillation counter analysis
reported_endpoint: IC50 (µM)

{"compound_smiles": "Nc1ncnc2c1c(-c1cccc(OCc3ccccc3)c1)cn2[C@H]1C[C@@H](CN2CCC2)C1", "reported_endpoint": "IC50", "observed_measurement": 2.3}

* * *

# target_system: Insulin receptor (Homo sapiens, UniProt P06213)
# Sequence (P06213 28-758 limits assumed): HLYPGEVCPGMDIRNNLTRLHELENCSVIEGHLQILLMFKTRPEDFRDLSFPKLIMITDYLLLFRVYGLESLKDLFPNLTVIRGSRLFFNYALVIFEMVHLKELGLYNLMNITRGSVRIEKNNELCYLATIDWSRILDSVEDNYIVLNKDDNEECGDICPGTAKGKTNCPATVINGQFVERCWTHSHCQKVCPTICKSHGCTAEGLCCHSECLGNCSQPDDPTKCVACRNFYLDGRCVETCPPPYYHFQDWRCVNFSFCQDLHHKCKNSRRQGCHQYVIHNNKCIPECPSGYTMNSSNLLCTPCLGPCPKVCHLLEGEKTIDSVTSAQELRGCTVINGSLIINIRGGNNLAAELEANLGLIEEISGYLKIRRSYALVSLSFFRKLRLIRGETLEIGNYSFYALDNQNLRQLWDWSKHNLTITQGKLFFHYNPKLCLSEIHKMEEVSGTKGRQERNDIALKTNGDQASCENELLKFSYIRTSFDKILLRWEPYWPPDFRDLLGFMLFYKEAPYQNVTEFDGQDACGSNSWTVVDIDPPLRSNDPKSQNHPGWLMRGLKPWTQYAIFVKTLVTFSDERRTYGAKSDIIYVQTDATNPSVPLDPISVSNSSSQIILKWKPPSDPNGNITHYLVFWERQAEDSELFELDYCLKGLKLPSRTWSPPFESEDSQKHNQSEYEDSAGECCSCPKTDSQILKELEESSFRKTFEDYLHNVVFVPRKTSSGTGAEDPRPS
# Sequence (P06213 763-1382 limits assumed): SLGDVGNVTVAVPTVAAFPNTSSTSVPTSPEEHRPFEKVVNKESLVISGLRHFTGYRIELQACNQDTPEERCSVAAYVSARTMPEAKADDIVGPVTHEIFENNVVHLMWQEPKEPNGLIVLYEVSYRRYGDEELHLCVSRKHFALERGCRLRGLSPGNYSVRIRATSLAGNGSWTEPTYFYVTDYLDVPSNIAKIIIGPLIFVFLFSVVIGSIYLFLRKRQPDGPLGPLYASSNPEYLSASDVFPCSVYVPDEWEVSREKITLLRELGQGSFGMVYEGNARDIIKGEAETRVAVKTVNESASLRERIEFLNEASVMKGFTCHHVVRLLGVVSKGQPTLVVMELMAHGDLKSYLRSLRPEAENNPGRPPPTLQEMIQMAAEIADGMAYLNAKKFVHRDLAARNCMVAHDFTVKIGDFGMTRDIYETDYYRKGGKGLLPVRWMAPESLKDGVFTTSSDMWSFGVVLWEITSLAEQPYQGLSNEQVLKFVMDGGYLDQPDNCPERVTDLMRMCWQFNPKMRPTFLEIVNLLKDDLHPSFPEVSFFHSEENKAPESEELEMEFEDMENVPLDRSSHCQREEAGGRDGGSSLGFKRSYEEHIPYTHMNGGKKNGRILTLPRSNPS
# test_name: Inhibition of GST tagged human Ins-R expressed in baculovirus at pH 7.6 measured after 20 mins in presence of gamma-[33P]-ATP by scintillation counter analysis
pIC50: −log10 of the molar value.

{"compound_smiles": "Nc1ncnc2c1c(-c1cccc(OCc3ccccc3)c1)cn2[C@H]1C[C@@H](CN2CCC2)C1", "pIC50": 6.85}

* * *

# target_system: Hepatocyte growth factor receptor (Homo sapiens, UniProt P08581)
# test_name: Inhibition of GST tagged c-Met (unknown origin) expressed in baculovirus at pH 7.6 measured after 10 to 30 mins in presence of gamma-[33P]-ATP by scintillation counter analysis
reported_endpoint: IC50 (µM)

{"compound_smiles": "Nc1ncnc2c1c(-c1cccc(OCc3ccccc3)c1)cn2[C@H]1C[C@@H](CN2CCC2)C1", "reported_endpoint": "IC50", "observed_measurement": 3.8}
